test system: barnyardgrass (Echinochloa crus-galli); test: Test A pre-/postemergence: barnyardgrass; type: in vivo; details: Postemergence, 500 g ai/ha; visual rating on 0 to 100 scale (0 no effect, 100 complete control), approximately ten days
propertyMeasured: Barnyardgrass plant response rating
Could you respond with only the numeric value?

{"columns": ["compound", "Barnyardgrass plant response rating"],
 "data": [
  ["COc1nn(-c2ccc(C(F)(F)F)cc2)nc1C(C)(O)c1ccnc(C(F)(F)F)c1 (stereo not drawn) [Compound 79]", 0],
  ["Cc1nn(-c2ccc(C(F)(F)F)cc2)nc1Cn1c(Cl)nc(C(F)(F)F)c1Cl [Compound 11]", 0],
  ["Cc1nn(-c2ccc(F)cc2F)nc1Oc1ccnc(C(F)(F)F)c1 [Compound 146]", 90],
  ["Cc1nn(-c2ccnc(Cl)c2)nc1Cc1ccnc(C(F)(F)F)c1 [Compound 141]", 90],
  ["Cc1nn(-c2ccc(Br)cc2)nc1Oc1ccnc(C(F)(F)F)c1 [Compound 53]", 90]
]}

Now turn to the next compound.
Prompt: Give the value of Barnyardgrass plant response rating reported for the following: Cc1nn(-c2ccc(C(F)(F)F)cc2)nc1Oc1cccc(OC(F)(F)F)c1 [Compound 119]
Completion: 20
